procedure.summary: PD study: compound concentration in mouse liver
Type: in vivo, C57BL/6 mice
condition.context: male, C57BL/6, mouse, 50 mg/kg, 50 mpk oral, 6 h, read-out: Liver Conc uM (6 h)
result.type: concentration at 6 h (µM)

In [3]: df
Out[3]:
                                   compound           result_type  measured_result
0  Cn1c(Nc2nc3ccc(OC(F)(F)F)cc3o2)nc2cc(C(=O)O)ccc21  concentration at 6 h              162

P: Cn1c(Nc2nc3cc(OC(F)(F)F)ccc3[nH]2)nc2cc(C(=O)O)ccc21
Q: Cn1c(Nc2nc3ccc(OC(F)(F)F)cc3s2)nc2cc(C(=O)NCCOCCO)ccc21 [Comparator 1, reference compound]
For the two items P and Q , which reports the higher concentration at 6 h value? State the label of the item chosen.
P

====

procedure.summary: Kinetic solubility
Type: physicochemical
condition.context: Dulbecco's phosphate buffer saline (DPBS), aqueous buffer, kinetic from dmso stock, DPBS pH 7.4, 25° C., 200 μM test compound
result.type: solubility at 16 h (µM)

// worked examples, solubility at 16 h included
>>> print(df.to_string())
                                   compound  unit_descriptor  measured_result
0  O=C(O)c1ccc2c(c1)nc(Nc1nc3ccc(OC(F)(F)F)cc3o1)n2C1CCOCC1               µM             12.4
1  COCCn1c(Nc2nc3cc(OC(F)(F)F)ccc3[nH]2)nc2cc(C(=O)O)ccc21               µM             11.6

P: Cn1c(Nc2nc3ccccc3o2)nc2cc(C(=O)NCCN3CCOCC3)ccc21
Q: Cn1c(Nc2nc3cc(F)c(C(F)(F)F)cc3o2)nc2cc(C(=O)NCCO)ccc21
// returns P or Q , whichever has the lower solubility at 16 h State the label of the item chosen.
Q
(Q: 0.3 µM, P: 7.3 µM)

A: Cn1c(Nc2nc3ccccc3o2)nc2cc(C(=O)NCCOCCO)c(F)cc21
B: Cn1c(Nc2nc3ccc(C(F)(F)F)cc3o2)nc2cc(C(=O)O)ccc21
C: Cn1c(Nc2nc3ccc(C(F)(F)F)nc3o2)nc2cc(C(=O)NCCO)ccc21
D: CN(C)CCONC(=O)c1ccc2c(c1)nc(Nc1nc3ccc(C(F)(F)F)cc3o1)n2C
E: COCCNC(=O)c1ccc2c(c1)nc(Nc1nc3ccc(C(C)C)cc3o1)n2C
Rank ascending by solubility at 16 h. List each label, following the requested order.
E, A, D, C, B
(E: 0.9 µM, A: 2.7 µM, D: 5.1 µM, C: 9.1 µM, B: 14.9 µM)

I: Cn1c(Nc2nc3ccc(C(F)(F)F)cc3o2)nc2cc(C(=O)NOCCO)ccc21
II: Cn1c(Nc2nc3ccc(OC(F)(F)F)cc3o2)nc2cc(C(=O)NCCO)ccc21
III: Cn1c(Nc2nc3cccc(C(F)(F)F)c3o2)nc2cc(C(=O)NCCOCCO)ccc21
Given 3 compounds, produce a descending ranking by solubility at 16 h. List each label, following the requested order.
II, I, III

====

procedure.summary: Kinetic solubility
Format: physicochemical
condition.context: Dulbecco's phosphate buffer saline (DPBS), aqueous buffer, kinetic from dmso stock, DPBS pH 7.4, 25° C., 200 μM test compound
result.type: solubility at 16 h (µM)

In [3]: df
Out[3]:
                                   molecule         result_type  unit_descriptor  measured_result
0  COc1ccc2nc(Nc3nc4cc(C(=O)NCCO)ccc4n3C)oc2c1  solubility at 16 h               µM              3.5

1: Cn1cc(NC(=O)c2ccc3c(c2)nc(Nc2nc4ccc(OC(F)(F)F)cc4o2)n3C)cn1
2: COCCNC(=O)c1ccc2c(c1)nc(Nc1nc3ccc(OC(F)(F)F)cc3o1)n2C
3: CC(O)CONC(=O)c1ccc2c(c1)nc(Nc1nc3ccccc3o1)n2C (centres unmarked)
Given 3 molecules, produce a descending ranking by solubility at 16 h. List each label, following the requested order.
3, 1, 2

====

procedure.summary: PK study: plasma and brain levels in mice
Format: in vivo, C57BL/6 mice
condition.context: mouse, plasma; 4 hr; measured in a previous study
result.type: concentration at 4 h (ng/mL)
Answer with a number only, understood to be in ng/mL.

Which concentration at 4 h value belongs to Cn1c(Nc2nc3ccc(OC(F)(F)F)cc3s2)nc2cc(C(=O)NCCOCCO)ccc21 [Comparator 1, reference compound] ?
288

====

The following compounds are listed with their measured inhibition at 10 µM values.
system: UniProt:Q12809
Sequence (Q12809 whole entry): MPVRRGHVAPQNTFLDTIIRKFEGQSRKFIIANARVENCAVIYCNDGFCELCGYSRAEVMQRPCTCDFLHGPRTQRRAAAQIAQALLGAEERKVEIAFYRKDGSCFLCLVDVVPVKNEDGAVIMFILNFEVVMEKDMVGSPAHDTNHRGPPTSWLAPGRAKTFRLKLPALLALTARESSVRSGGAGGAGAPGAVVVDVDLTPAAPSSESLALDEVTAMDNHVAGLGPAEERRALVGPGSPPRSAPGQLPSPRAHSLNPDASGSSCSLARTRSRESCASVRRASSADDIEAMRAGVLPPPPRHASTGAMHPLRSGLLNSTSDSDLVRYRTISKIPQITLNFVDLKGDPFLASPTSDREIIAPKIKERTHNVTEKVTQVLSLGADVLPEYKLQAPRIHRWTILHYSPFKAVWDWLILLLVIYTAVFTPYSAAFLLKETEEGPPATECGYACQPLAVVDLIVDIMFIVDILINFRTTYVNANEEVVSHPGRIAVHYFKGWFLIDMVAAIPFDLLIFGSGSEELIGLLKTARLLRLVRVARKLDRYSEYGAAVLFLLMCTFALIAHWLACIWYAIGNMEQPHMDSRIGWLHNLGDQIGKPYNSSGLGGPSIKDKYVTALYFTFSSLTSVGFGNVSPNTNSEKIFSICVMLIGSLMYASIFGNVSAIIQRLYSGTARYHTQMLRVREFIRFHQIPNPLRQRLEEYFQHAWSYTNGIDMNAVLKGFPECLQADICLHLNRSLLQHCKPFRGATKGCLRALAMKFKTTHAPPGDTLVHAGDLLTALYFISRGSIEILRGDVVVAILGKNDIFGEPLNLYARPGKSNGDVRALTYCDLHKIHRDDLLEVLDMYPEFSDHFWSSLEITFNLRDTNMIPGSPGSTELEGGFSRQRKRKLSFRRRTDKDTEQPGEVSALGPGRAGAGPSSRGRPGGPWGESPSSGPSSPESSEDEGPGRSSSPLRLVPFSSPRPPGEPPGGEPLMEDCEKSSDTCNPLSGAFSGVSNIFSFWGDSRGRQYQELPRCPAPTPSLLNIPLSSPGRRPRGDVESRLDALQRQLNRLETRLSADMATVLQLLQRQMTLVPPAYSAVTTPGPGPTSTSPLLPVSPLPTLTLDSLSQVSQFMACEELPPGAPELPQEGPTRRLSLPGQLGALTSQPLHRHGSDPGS
procedure.summary: hERG manual patch clamp assay
Format: cell-based
condition.context: HEK 293 cells stably expressing hERG channel, pH 7.35, 10 μM compound
Description: Cell Lines and Cell Culture HEK 293 cell line stably expressing hERG channel (Cat # K1236) was purchased from Invitrogen. […] Data that met the above criteria for hERG current quality were further analyzed as the following steps. • 1) Percent hERG current inhibition was calculated using the following equation. • Note: PatchMaster or Clampfit software was used to extract the peak current from the original data. […]
Answer with a number only, understood to be in %.

In [3]: df
Out[3]:
                                   compound  measured_result
0  Cn1c(Nc2nc3ccc(OC(F)(F)F)cc3s2)nc2cc(C(=O)NCCOCCO)ccc21 [Comparator 1, reference compound]               66
1  Cn1c(Nc2nc3ccccc3o2)nc2cc(C(=O)NCC3(O)COC3)ccc21 [Example 26]               18
2  COCCNC(=O)c1ccc2c(c1)nc(Nc1nc3cc(OC(F)(F)F)ccc3[nH]1)n2C [Example 14]               87

Missing value: inhibition at 10 µM, UniProt:Q12809, entry COCCOc1ccc2nc(Nc3nc4cc(C(=O)NCCO)ccc4n3C)oc2c1 [Example 57] . Fill in?
15

Missing value: inhibition at 10 µM, UniProt:Q12809, entry COCCOc1ccc2nc(Nc3nc4cc(C(=O)NCCOCCO)ccc4n3C)oc2c1 [Example 58] . Fill in?
11

Missing value: inhibition at 10 µM, UniProt:Q12809, entry Cn1c(Nc2nc3ccccc3o2)nc2cc(C(=O)NCCOCCO)ccc21 [Example 17] . Fill in?
16

Missing value: inhibition at 10 µM, UniProt:Q12809, entry COCCn1c(Nc2nc3cc(OC(F)(F)F)ccc3[nH]2)nc2cc(C(=O)O)ccc21 [Example 75] . Fill in?
9

Missing value: inhibition at 10 µM, UniProt:Q12809, entry Cn1c(Nc2nc3ccccc3o2)nc2cc(C(=O)NCCN3CCOCC3)ccc21 [Example 20] . Fill in?
59

Missing value: inhibition at 10 µM, UniProt:Q12809, entry Cn1c(Nc2nc3ccc(OC(F)F)cc3o2)nc2cc(C(=O)O)ccc21 [Example 62] . Fill in?
13

Missing value: inhibition at 10 µM, UniProt:Q12809, entry COCCNC(=O)c1ccc2c(c1)nc(Nc1nc3ccc(OCCOC)cc3o1)n2C [Example 56] . Fill in?
35

Missing value: inhibition at 10 µM, UniProt:Q12809, entry Cn1c(Nc2nc3cc(F)ccc3[nH]2)nc2cc(C(=O)O)ccc21 [Example 73] . Fill in?
5

Missing value: inhibition at 10 µM, UniProt:Q12809, entry Cn1c(Nc2nc3ccc(C(F)(F)F)cc3o2)nc2cc(C(=O)O)ccc21 [Example 31] . Fill in?
0

Missing value: inhibition at 10 µM, UniProt:Q12809, entry CC1CCc2nc(Nc3nc4cc(C(=O)NCCOCCO)ccc4n3C)sc2C1 (centres unmarked) [Ex 7] . Fill in?
6

Missing value: inhibition at 10 µM, UniProt:Q12809, entry CN(C)CC(=O)NCCONC(=O)c1ccc2c(c1)nc(Nc1nc3ccccc3o1)n2C [Example 121] . Fill in?
66

====

Test system: Human Heme Oxygenase-1 (HMOX-1)
procedure.summary: ELISA assay to measure human heme oxygenase-1 (HMOX-1) in HepG2 lysate
Type: cell-based
condition.context: human HMOX1 protein level in HepG2 lysate; * = average of 2 or more EC50 determinations; NA = Not Active; read-out: EC50
pEC50: −log10 of the molar value.
result.type: pEC50

>>> df
                                   molecule  measured_result
0  CC(C)c1ccc2nc(Nc3nc4cc(C(=O)O)ccc4n3C)oc2c1 [Example 59]             5.48
1  COCCNC(=O)c1ccc2c(c1)nc(Nc1nc3ccc(OC(F)(F)F)cc3o1)n2CCS(C)(=O)=O [Example 90]             5.32
2  COCCNC(=O)c1ccc2c(c1)nc(Nc1nc3ccc(OCCO)cc3o1)n2C [Example 102]             5.89
3  COCCONC(=O)c1ccc2c(c1)nc(Nc1nc3ccc(C(C)=O)cc3o1)n2C [Example 132]             5.82
4  CC(C)C(N)C(=O)OCCOCCNC(=O)c1ccc2c(c1)nc(Nc1nc3ccccc3o1)n2C.Cl (racemic) [Example 30, hydrochloride]             5.46

P: Cn1c(Nc2nc3ccc(OC(F)(F)F)cc3o2)nc2cc(C(=O)NOCCO)ccc21 [Example 126]
Q: COCCNC(=O)c1ccc2c(c1)nc(Nc1nc3ccc(OC(F)(F)F)cc3s1)n2C1CCN(C)CC1 [Example 3e]
R: Cn1c(Nc2nc3cc(OC(F)(F)F)ccc3[nH]2)nc2cc(C(=O)O)ccc21 [Example 13]
Given 3 molecules, produce a descending ranking by pEC50. List each label, following the requested order.
P, Q, R

A: Cl.Cn1c(Nc2nc3ccccc3o2)nc2cc(C(=O)NCCN)ccc21 [Example 18, hydrochloride]
B: Cn1c(Nc2nc3ccc(Cl)cc3o2)nc2cc(C(=O)O)ccc21 [Example 96]
For the two items A and B , which reports the higher pEC50 value? State the label of the item chosen.
A

P: COCCNC(=O)c1ccc2c(c1)nc(Nc1nc3ccc(F)cc3o1)n2C [Example 69]
Q: Cn1c(Nc2nc3cc(F)c(C(F)(F)F)cc3o2)nc2cc(C(=O)NCCO)ccc21 [Example 108]
For the two items P and Q , which reports the higher pEC50 value? State the label of the item chosen.
P

a: Cn1c(Nc2nc3ccc(C(F)(F)F)cc3o2)nc2cc(C(=O)NCCOCC(=O)O)ccc21 [Example 41]
b: Cn1c(Nc2nc3ccccc3o2)nc2cc(C(=O)NCCOCCO)c(F)cc21 [Example 72]
For the two items a and b , which reports the higher pEC50 value? State the label of the item chosen.
b

P: Cn1c(Nc2nc3ccc(C(C)(C)O)cc3o2)nc2cc(C(=O)NCCO)ccc21 [Example 133]
Q: Cn1c(Nc2nc3ccccc3o2)nc2cc(C(=O)NCC3(O)COC3)ccc21 [Example 26]
R: Cn1c(Nc2nc3ccc(OC(F)(F)F)cc3o2)nc2cc(C(=O)O)c(F)cc21 [Example 70]
S: Cn1c(Nc2nc3ccccc3o2)nc2cc(C(=O)NCCN3CCOCC3)ccc21 [Example 20]
Given 4 molecules, produce a descending ranking by pEC50. List each label, following the requested order.
S, Q, R, P

1: Cn1c(Nc2nc3ccccc3o2)nc2cc(C(=O)NCCN3CCCC3)ccc21 [Example 28]
2: Cn1c(Nc2nc3ccccc3o2)nc2cc(C(=O)C(F)(F)F)ccc21 [Example 139]
3: Cn1c(Nc2nc3cccnc3o2)nc2cc(C(=O)NCCO)ccc21 [Example 110]
4: COCCOc1ccc2nc(Nc3nc4cc(C(=O)O)ccc4n3C)oc2c1 [Example 55]
5: CN(C)CC(=O)NCCNC(=O)c1ccc2c(c1)nc(Nc1nc3ccc(C(F)(F)F)cc3o1)n2C [Example 40]
Rank ascending by pEC50. List each label, following the requested order.
3, 4, 2, 1, 5
(3: 5.12, 4: 5.35, 2: 5.59, 1: 5.80, 5: 6.16)

I: Cn1c(Nc2nc3ccc(N4CCCC4)cc3o2)nc2cc(C(=O)NCCOCCO)ccc21 [Example 137]
II: Cn1c(Nc2nc3ccc(OC(F)(F)F)cc3o2)nc2cc(C(=O)NCCS(C)(=O)=O)ccc21 [Example 54]
III: COCCNC(=O)c1ccc2c(c1)nc(Nc1nc3cccnc3o1)n2C [Example 109]
Given 3 molecules, produce a descending ranking by pEC50. List each label, following the requested order.
I, II, III

1: CC(O)CNC(=O)c1ccc2c(c1)nc(Nc1nc3ccc(C(F)(F)F)cc3o1)n2C (stereo not drawn) [Example 35]
2: CN1CCC(n2c(Nc3nc4ccc(OC(F)(F)F)cc4s3)nc3cc(C(=O)O)ccc32)C1 (stereo not drawn) [Example 4d]
3: CC(O)CNC(=O)c1ccc2c(c1)nc(Nc1nc3ccccc3o1)n2C (stereo not drawn) [Example 23]
Given 3 molecules, produce a descending ranking by pEC50. List each label, following the requested order.
1, 3, 2

Source of measurements: patent US10766888B1
